- measured_on: T1, CXC chemokine receptor type 4 (CXCR4) (human, UniProt P61073 1-352)
- T1 chain: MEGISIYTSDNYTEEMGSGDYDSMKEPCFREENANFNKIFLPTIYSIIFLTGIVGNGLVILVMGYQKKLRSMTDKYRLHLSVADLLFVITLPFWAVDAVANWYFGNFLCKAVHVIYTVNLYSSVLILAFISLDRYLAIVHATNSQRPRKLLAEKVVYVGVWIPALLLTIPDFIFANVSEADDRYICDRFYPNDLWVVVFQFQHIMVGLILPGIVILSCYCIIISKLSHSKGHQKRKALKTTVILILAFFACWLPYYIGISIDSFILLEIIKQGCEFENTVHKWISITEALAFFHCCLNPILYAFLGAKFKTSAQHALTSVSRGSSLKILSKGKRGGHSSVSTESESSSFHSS
- measurement_notes: 12G5 antibody competition
Where no end group is shown, it is not given here. Side-chain parts run from the residue outwards. [ ]: non-standard residue; d: D form. The star is where a group is joined. Palmitoyl = CCCCCCCCCCCCCCCC(=O)*; Glu = glutamate linker
Here the recorded IC50 is given for each entry.
I only need the number, in nM, no unit after it.

{"columns": ["binder", "measured_result"],
 "data": [
  ["[dM]LRWSRKK([Glu-Palmitoyl])-NH2 [JM#197]", 5]
]}

Measured IC50, [dM]LRWSRK([Glu-Palmitoyl])-NH2 [JM#196] : 31

Per the record, [dL]MRWSRKMPCVS [JM#36] has IC50 of 305

Entry [dI]LRWSRKLP-NH2 [JM#174] , IC50 reported as 480

Sample [dL]MRWSRKK([Glu-Palmitoyl])-NH2 [JM#195] ; IC50 observed: 3

ILRWSRKLP-NH2 [JM#114] yielded IC50 of 232

Ref: patent US20230131339A1
